# Protocol text: wn = mass fraction of the nth substance listed
# Recorded conditions: 297.15 K; 101 kPa; Liquid; Alternating current cell with electrodes; w1 = 0.1
Endpoint: electrical conductivity (S/m)
Return type: number; implicit unit S/m.

I am curious: what electrical conductivity value has been reported for C[n+]1ccn(CCO)c1.[Cl-] [1-(2-hydroxyethyl)-3-methyl-1H-imidazolium chloride] + O ? 4.19

I am curious: what electrical conductivity value has been reported for CCCCn1cc[n+](C)c1.[Cl-] [1-butyl-3-methylimidazolium chloride] + O ? 3.43

---

Listing: electrical conductivity of selected compounds
# Protocol text: wn = mass fraction of the nth substance listed
# Recorded conditions: 297.15 K; 101 kPa; Liquid; Alternating current cell with electrodes; w1 = 0.1
Return type: number; implicit unit S/m.

CCCCn1cc[n+](C)c1.[Br-] [1-butyl-3-methylimidazolium bromide] + O: 2.87
CCCCn1cc[n+](C)c1.N#CN=C=[N-] [1-butyl-3-methylimidazolium dicyanamide] + O: 1.9
CCCCn1cc[n+](C)c1.O=S(=O)([O-])O [1-butyl-3-methylimidazolium hydrogen sulfate] + O: 7.63

Next up:
I am curious: what electrical conductivity value has been reported for CCCCn1cc[n+](C)c1.O=S(=O)([O-])C(F)(F)F [1-butyl-3-methylimidazolium trifluoromethanesulfonate] + O ? 1.38
